Entries and their measured ED50 follow.
Biological target: Human immunodeficiency virus type 1 protease (Human immunodeficiency virus 1)
Assay: Anti-HIV-1 activity against mutant HIV-1 in MT-4 cells (mutation selected with compound 1)
Assay type: functional, cell-based
Details: MT4

# compound, qual, ED50, µM
rows = [
    ("O=C(NC1c2ccccc2C[C@H]1O)[C@H](OCc1cc(F)ccc1F)[C@H](O)[C@@H](O)[C@@H](OCc1cc(F)ccc1F)C(=O)N[C@H]1c2ccccc2C[C@H]1O (stereo partly specified)", "=", 0.16),
    ("CNC(=O)[C@@H](NC(=O)[C@H](OCc1cc(F)cc(F)c1)[C@H](O)[C@@H](O)[C@@H](OCc1cc(F)cc(F)c1)C(=O)N[C@H](C(=O)NC)C(C)C)C(C)C", "=", 1.32),
    ("O=C(NC1c2ccccc2C[C@H]1O)[C@H](OCc1ccccc1F)[C@H](O)[C@@H](O)[C@@H](OCc1ccccc1F)C(=O)N[C@H]1c2ccccc2C[C@H]1O (stereo partly specified)", "=", 0.27),
    ("CC(C)c1nc(CN(C)C(=O)N[C@H](C(=O)N[C@@H](Cc2ccccc2)C[C@H](O)[C@H](Cc2ccccc2)NC(=O)OCc2cncs2)C(C)C)cs1", "=", 0.98),
    ("Cc1c(O)cccc1C(=O)N[C@@H](CSc1ccccc1)[C@H](O)CN1C[C@H]2CCCC[C@H]2C[C@H]1C(=O)NC(C)(C)C", "=", 0.07),
    ("O=C(NC1c2ccccc2C[C@H]1O)[C@H](OCc1c(F)cccc1F)[C@H](O)[C@@H](O)[C@@H](OCc1c(F)cccc1F)C(=O)N[C@H]1c2ccccc2C[C@H]1O (stereo partly specified)", "=", 0.31),
    ("CNC(=O)[C@@H](NC(=O)[C@H](OCc1c(F)cccc1F)[C@H](O)[C@@H](O)[C@@H](OCc1c(F)cccc1F)C(=O)N[C@H](C(=O)NC)C(C)C)C(C)C", ">", 15),
    ("O=C(NC1c2ccccc2C[C@H]1O)[C@H](OCc1ccccc1)[C@H](O)[C@@H](O)[C@@H](OCc1ccccc1)C(=O)N[C@H]1c2ccccc2C[C@H]1O (stereo partly specified)", "=", 0.46),
    ("O=C(NC1c2ccccc2C[C@H]1O)[C@H](OCc1cc(F)cc(F)c1)[C@H](O)[C@@H](O)[C@@H](OCc1cc(F)cc(F)c1)C(=O)N[C@H]1c2ccccc2C[C@H]1O (stereo partly specified)", "=", 0.23),
    ("CNC(=O)[C@@H](NC(=O)[C@H](OCc1ccccc1)[C@H](O)[C@@H](O)[C@@H](OCc1ccccc1)C(=O)N[C@H](C(=O)NC)C(C)C)C(C)C", "=", 8.13),
    ("O=C(NC1c2ccccc2C[C@H]1O)[C@H](OCc1ccc(F)cc1)[C@H](O)[C@@H](O)[C@@H](OCc1ccc(F)cc1)C(=O)N[C@H]1c2ccccc2C[C@H]1O (stereo partly specified)", "=", 1.13),
]
